Target: T1, human IL-12Rβ2 expressed on cells (human, UniProt Q99665 24-862)
T1 sequence: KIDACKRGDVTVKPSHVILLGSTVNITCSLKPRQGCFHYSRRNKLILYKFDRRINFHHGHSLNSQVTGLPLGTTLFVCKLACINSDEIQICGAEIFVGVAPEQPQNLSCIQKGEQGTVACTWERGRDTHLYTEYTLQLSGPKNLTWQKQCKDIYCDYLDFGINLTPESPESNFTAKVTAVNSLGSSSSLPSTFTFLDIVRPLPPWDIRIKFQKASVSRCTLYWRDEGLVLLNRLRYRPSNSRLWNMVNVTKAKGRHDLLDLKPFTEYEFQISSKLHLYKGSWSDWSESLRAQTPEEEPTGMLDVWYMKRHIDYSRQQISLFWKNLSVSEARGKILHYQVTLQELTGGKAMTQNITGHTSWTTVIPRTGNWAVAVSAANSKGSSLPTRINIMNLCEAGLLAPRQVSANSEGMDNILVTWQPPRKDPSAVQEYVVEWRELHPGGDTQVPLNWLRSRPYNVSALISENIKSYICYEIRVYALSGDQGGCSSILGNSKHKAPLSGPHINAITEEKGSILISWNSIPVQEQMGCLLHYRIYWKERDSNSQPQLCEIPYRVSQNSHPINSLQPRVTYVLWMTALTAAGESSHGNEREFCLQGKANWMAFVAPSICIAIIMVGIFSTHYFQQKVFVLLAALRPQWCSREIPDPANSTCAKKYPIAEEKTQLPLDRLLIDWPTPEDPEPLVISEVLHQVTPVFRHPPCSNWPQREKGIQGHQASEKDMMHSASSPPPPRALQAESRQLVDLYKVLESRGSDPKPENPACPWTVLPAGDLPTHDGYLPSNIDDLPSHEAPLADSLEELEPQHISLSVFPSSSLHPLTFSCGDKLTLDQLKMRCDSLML
Test: cell-based or functional assay
Would you mind telling me the reported % Specific Cell Lysis at 0.5 ug/mL of each entry?

input: Returns the measured % Specific Cell Lysis at 0.5 ug/mL for the input binder. Input: 20372-FcDE (Fc fusion) VHH-Fc chain: QVQLQESGGGLVQAGGSLRLSCAASARTESMYAMAWFRQAPGKEREIVAGIIQSGGTTYISDYMKGRFSIDRGNAENTVYLQMDSLKPEDTAVYSCAAKVSSGTPSDIQISQSRWYDHWGQGTQVTVSSAPELLGGPDVFLFPPKPKDTLMISRTPEVTCVVVDVSHEDPEVKFNWYVDGVEVHNAKTKPREEQYNSTYRVVSVLTVLHQDWLNGKEYKCKVSNKALPAPEEKTISKAKGQPREPQVYTLPPSRDELTKNQVSLTCLVKGFYPSDIAVEWESNGQPENNYKTTPPVLDSDGSFFLYSKLTVDKSRWQQGNVFSCSVMHEALHNHYTQKSLSLSPGK
output: 66.9%

input: Returns the measured % Specific Cell Lysis at 0.5 ug/mL for the input binder. Input: anti-IL-12Rβ2-VHH-FcDE clone 21062 (Fc fusion) QVQLQESGGGLVQPGGSLRLSCAASGISSSRLHVGWFRQSPGKEREFVAAISLSGGTQAYTDSVKGRFTISGDNVKNTAYLQMNSLRPEDTAVYYCAARERFIWTWSDLTYDYWGQGTQVTVSSAPELLGGPDVFLFPPKPKDTLMISRTPEVTCVVVDVSHEDPEVKFNWYVDGVEVHNAKTKPREEQYNSTYRVVSVLTVLHQDWLNGKEYKCKVSNKALPAPEEKTISKAKGQPREPQVYTLPPSRDELTKNQVSLTCLVKGFYPSDIAVEWESNGQPENNYKTTPPVLDSDGSFFLYSKLTVDKSRWQQGNVFSCSVMHEALHNHYTQKSLSLSPGK
output: 60.9%

input: Returns the measured % Specific Cell Lysis at 0.5 ug/mL for the input binder. Input: anti-IL-12Rβ2-VHH-FcDE clone 21050 (Fc fusion) QVQLQESGGGLVQAGGSLRLSCAASGRTFNNYAMAWFRQAPGKEREFIAAITRSDTTLYIDSVKGRFTISRDNAKNTVALQMNSLKPEDTAVYYCAAGMPYSYSDYPRDSKYDYWGRGTQVTVSSAPELLGGPDVFLFPPKPKDTLMISRTPEVTCVVVDVSHEDPEVKFNWYVDGVEVHNAKTKPREEQYNSTYRVVSVLTVLHQDWLNGKEYKCKVSNKALPAPEEKTISKAKGQPREPQVYTLPPSRDELTKNQVSLTCLVKGFYPSDIAVEWESNGQPENNYKTTPPVLDSDGSFFLYSKLTVDKSRWQQGNVFSCSVMHEALHNHYTQKSLSLSPGK
output: 61.3%

input: Returns the measured % Specific Cell Lysis at 0.5 ug/mL for the input binder. Input: 20422-FcDE (Fc fusion) VHH-Fc chain: QVQLQESGGGLVQPGGSLRLSCTASGSIVSIYNMDWYRQAPGNEREWVASITSSGDPYYDGSAKGRFTISRDNAKMTVYLQMNSLEPEDTAVYFCKVPTEKGNYWGQGTQVTVSSAPELLGGPDVFLFPPKPKDTLMISRTPEVTCVVVDVSHEDPEVKFNWYVDGVEVHNAKTKPREEQYNSTYRVVSVLTVLHQDWLNGKEYKCKVSNKALPAPEEKTISKAKGQPREPQVYTLPPSRDELTKNQVSLTCLVKGFYPSDIAVEWESNGQPENNYKTTPPVLDSDGSFFLYSKLTVDKSRWQQGNVFSCSVMHEALHNHYTQKSLSLSPGK
output: 65.8%

input: Returns the measured % Specific Cell Lysis at 0.5 ug/mL for the input binder. Input: 20415-FcDE (Fc fusion) VHH-Fc chain: QVQLQESGGGLVQPGGSLRLSCTASGSIVSIYNMDWYRQAPGNEREWVASITSSGDPYYDGSAKGRFTISRDNAKMTVYLQMNSLKPEDTAVYYCKVPTEKGNYWGQGTQVTVSSAPELLGGPDVFLFPPKPKDTLMISRTPEVTCVVVDVSHEDPEVKFNWYVDGVEVHNAKTKPREEQYNSTYRVVSVLTVLHQDWLNGKEYKCKVSNKALPAPEEKTISKAKGQPREPQVYTLPPSRDELTKNQVSLTCLVKGFYPSDIAVEWESNGQPENNYKTTPPVLDSDGSFFLYSKLTVDKSRWQQGNVFSCSVMHEALHNHYTQKSLSLSPGK
output: 68.8%

input: Returns the measured % Specific Cell Lysis at 0.5 ug/mL for the input binder. Input: 20373-FcDE (Fc fusion) VHH-Fc chain: QVQLQESGGGLVQAGGSLVLSCAASGSAALIFLMSWYRQAPGKQRELVAEVSRGGSTTYADSVEGRFTISRDNAKNIVDLQMNSLKPEDTAVYYCKADQNYGDSLRSSWGQGTQVTVSSAPELLGGPDVFLFPPKPKDTLMISRTPEVTCVVVDVSHEDPEVKFNWYVDGVEVHNAKTKPREEQYNSTYRVVSVLTVLHQDWLNGKEYKCKVSNKALPAPEEKTISKAKGQPREPQVYTLPPSRDELTKNQVSLTCLVKGFYPSDIAVEWESNGQPENNYKTTPPVLDSDGSFFLYSKLTVDKSRWQQGNVFSCSVMHEALHNHYTQKSLSLSPGK
output: 67.4%

input: Returns the measured % Specific Cell Lysis at 0.5 ug/mL for the input binder. Input: 20429-FcDE (Fc fusion) VHH-Fc chain: QVQLQESGGGLVQPGGSLRLSCKASGFTFSTYAMSWVRQAPGKGLEWVSAVNSGGLSTDYADSVEGRFTISRDDAKNMLFLQMNSLKPEDTARYYCAKYEDCSDYMCHRDRAGYWGQGTQVTVSSAPELLGGPDVFLFPPKPKDTLMISRTPEVTCVVVDVSHEDPEVKFNWYVDGVEVHNAKTKPREEQYNSTYRVVSVLTVLHQDWLNGKEYKCKVSNKALPAPEEKTISKAKGQPREPQVYTLPPSRDELTKNQVSLTCLVKGFYPSDIAVEWESNGQPENNYKTTPPVLDSDGSFFLYSKLTVDKSRWQQGNVFSCSVMHEALHNHYTQKSLSLSPGK
output: 67.7%

input: Returns the measured % Specific Cell Lysis at 0.5 ug/mL for the input binder. Input: anti-IL-12Rβ2-VHH-FcDE clone 21053 (Fc fusion) QVQLQESGGGLVQAGGSLRLSCAASGRTFSNYAMAWFRQAPGTEREFVAGLSGSGGDTEFYDDSVKGRFAISRDSAKNTVWLQMNSLKPEDTAVYYCAAATHVVVHYGLVRRRGTYDYWGQGTQVTVSSAPELLGGPDVFLFPPKPKDTLMISRTPEVTCVVVDVSHEDPEVKFNWYVDGVEVHNAKTKPREEQYNSTYRVVSVLTVLHQDWLNGKEYKCKVSNKALPAPEEKTISKAKGQPREPQVYTLPPSRDELTKNQVSLTCLVKGFYPSDIAVEWESNGQPENNYKTTPPVLDSDGSFFLYSKLTVDKSRWQQGNVFSCSVMHEALHNHYTQKSLSLSPGK
output: 64.7%

Recorded values, source patent US20260209362A1.
